# assayedTarget: AVP-V1 sites (Rattus norvegicus)
# Construct: crude membrane preparation of male rat liver (AVP-V1 sites); from tissue; host or cells: male rat liver, crude membranes
# Sequence (P30560 whole entry): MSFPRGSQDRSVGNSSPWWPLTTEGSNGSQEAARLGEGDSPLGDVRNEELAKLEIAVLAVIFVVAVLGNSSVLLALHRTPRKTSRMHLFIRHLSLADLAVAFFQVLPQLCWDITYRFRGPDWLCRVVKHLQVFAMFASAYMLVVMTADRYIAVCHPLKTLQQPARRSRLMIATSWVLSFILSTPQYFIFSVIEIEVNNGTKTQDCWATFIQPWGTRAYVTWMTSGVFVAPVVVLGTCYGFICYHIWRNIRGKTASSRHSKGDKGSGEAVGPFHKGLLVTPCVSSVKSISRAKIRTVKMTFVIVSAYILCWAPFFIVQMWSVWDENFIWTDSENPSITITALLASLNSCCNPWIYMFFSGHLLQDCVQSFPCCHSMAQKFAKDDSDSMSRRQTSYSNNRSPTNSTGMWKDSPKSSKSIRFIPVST
# assayComment: [^3 H]AVP binding to crude membrane preparation of male rat liver (AVP-V1 sites)
# protocolConditions: Receptor Binding Results IC50 (nM) [^3 H]-AVP-V1
Numbered stars: 1 amine (or outer) side, 2 acyl side, 3 side chain; on linkers, the order of the positions; unused ones are H or OH. Square brackets hold non-standard residues; d marks the D form. Peptide text beside a SMILES is read from it. * marks the point of attachment. X2 = O=C(OCc1ccccc1)N1CCN([*:1])[C@H](C(=O)[*:2])C1; dPiz(1,6-dehydro) = O=C(O)[C@H]1CCC=NN1; X1 = O=C([C@H]1C=CCCN1[*:1])[*:2]; Pip(4-aza) = O=C(O)[C@@H]1CNCCN1; dNMeF = CN[C@H](Cc1ccccc1)C(=O)O; Pip = O=C(O)[C@@H]1CCCCN1; dPip = O=C(O)[C@H]1CCCCN1; Orn = NCCC[C@H](N)C(=O)O; dNMeA = CN[C@H](C)C(=O)O; Boc = CC(C)(C)OC(=O)*
outcomeMeasure: IC50

| molecule | outcomeMeasure | readoutValue |
| --- | --- | --- |
| CC[C@H](C)[C@@H]1NC(=O)[C@@H](Cc2c[nH]c3ccccc23)NC(=O)[C@@H]2CCCN2C(=O)[C@@H](Cc2ccccc2)N(C)C(=O)[C@H](CCCCN)NC(=O)[C@H]2CCCCN2C1=O [Example 132] (cyclo(I[dPip]K[dNMeF]P[dW])) | IC50 | > 10000 nM |
| CC[C@H](C)[C@@H]1NC(=O)[C@@H](Cc2ccccc2)NC(=O)[C@@H]2CCCN2C(=O)[C@@H](Cc2ccccc2)N(C)C(=O)[C@@H]2CCCCN2C(=O)[C@@H](C)N(C)C1=O [Example 8] (cyclo(I[dNMeA][Pip][dNMeF]P[dF])) | IC50 | > 10000 nM |
| CC[C@H](C)[C@@H]1NC(=O)[C@@H](Cc2ccccc2)NC(=O)[C@@H]2CCCN2C(=O)[C@@H](Cc2c[nH]cn2)NC(=O)[C@@H]2CN(C(=O)OCc3ccccc3)CCN2C(=O)[C@H]2CCCCN2C1=O [Example 81] (cyclo(I[dPip][X2][dH]P[dF])) | IC50 | > 1000 nM |
| CC[C@H](C)[C@@H]1NC(=O)C(Cc2c[nH]c3ccc(F)cc23)NC(=O)[C@@H]2CCCN2C(=O)[C@@H](Cc2c[nH]cn2)NC(=O)[C@@H]2CCCCN2C(=O)[C@H]2CCCCN2C1=O (single isomer, unassigned) [157 higher Rf] | IC50 | 10000 nM |
| CC[C@H](C)[C@@H]1NC(=O)[C@@H](Cc2c[nH]c3ccccc23)NC(=O)[C@@H]2CCCN2C(=O)[C@@H](Cc2ccccc2)N(C)C(=O)[C@H](CCCNC(=O)OC(C)(C)C)NC(=O)[C@H]2CCC=NN2C1=O [Example 126] (cyclo(I[dPiz(1,6-dehydro)][Orn](Boc)[dNMeF]P[dW])) | IC50 | > 1000 nM |
| CC[C@H](C)[C@@H]1NC(=O)[C@@H](Cc2ccccc2)NC(=O)[C@@H]2CCCN2C(=O)C(Cc2cccnc2)NC(=O)[C@@H]2CCCCN2C(=O)[C@H]2CCCCN2C1=O (single isomer, unassigned) [Example 10 (isomer 2)] | IC50 | > 10000 nM |
| CC[C@H](C)[C@@H]1NC(=O)[C@@H](Cc2ccccc2)NC(=O)[C@@H]2CCCN2C(=O)[C@@H](Cc2ccccc2)N(C)C(=O)[C@@H]2CCCCN2C(=O)[C@H]2C=CCCN2C1=O [Example 24] (cyclo(I[X1][Pip][dNMeF]P[dF])) | IC50 | > 10000 nM |
| CC[C@H](C)[C@@H]1NC(=O)[C@@H](Cc2ccccc2)NC(=O)[C@@H]2CCCN2C(=O)[C@@H](Cc2ccccc2)NC(=O)[C@@H]2CNCCN2C(=O)[C@H]2CCCN2C1=O [Example 164] (cyclo(I[dP][Pip(4-aza)][dF]P[dF])) | IC50 | 10000 nM |
